System: NCI-H226 lung
ASSAY NAME: NCI tumour cell line growth inhibition, 48 h
Listed below: TGI values for each entry.

These solved cases illustrate the format of a correct answer.
ITEM SMILES	PARAMETER MEASURED	RESULT
O=C(NCCO)c1ccc([N+](=O)[O-])cc1	TGI	> 100 µM
CCN(CC)c1ccc(N=Nc2ccc([N+](=O)[O-])cc2OC(=O)/C=C/c2ccccc2)c(OC(=O)/C=C/c2ccccc2)c1	TGI	> 100 µM

Request the reported TGI associated with `COc1cccc(CSCC(=O)O)c1` > 100 µM

Lookup `COc1ccc(/C=C2\CCS(=O)(=O)c3ccccc3C2=O)cc1OC` > 100 µM

Lookup `Cc1cn(CCCCCCC2=NCCCN2)c(=O)[nH]c1=O` > 100 µM
